Provenance of the data: the supplement of paper PMC10567573

B1: PTPRD (parent)
chain: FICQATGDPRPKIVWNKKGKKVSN

- Variants of: B1
- Test Name: protein stability index of a GFP-peptide fusion (GPS, HEK-293T) (PSI 1-6); higher = more stable;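 further: lentivirally expressed fusions sorted by FACS into six bins by GFP to DsRed ratio, PSI derived from sequencing read proportions per bin multiplied by bin number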
- Experimental Context: c terminus: a fixed tail appended
Observed Property: protein stability index

Sample R10A ; protein stability index observed: 1.98

Sample I2A ; protein stability index observed: 2.67

Sample V22H ; protein stability index observed: 2.46
